- assayedTarget: hSSTR1 (Homo sapiens, UniProt P30872)
- Construct: expressed in transfected cells; host or cells: CHO-K1 cells and CCL39 cells
- Sequence (P30872 whole entry): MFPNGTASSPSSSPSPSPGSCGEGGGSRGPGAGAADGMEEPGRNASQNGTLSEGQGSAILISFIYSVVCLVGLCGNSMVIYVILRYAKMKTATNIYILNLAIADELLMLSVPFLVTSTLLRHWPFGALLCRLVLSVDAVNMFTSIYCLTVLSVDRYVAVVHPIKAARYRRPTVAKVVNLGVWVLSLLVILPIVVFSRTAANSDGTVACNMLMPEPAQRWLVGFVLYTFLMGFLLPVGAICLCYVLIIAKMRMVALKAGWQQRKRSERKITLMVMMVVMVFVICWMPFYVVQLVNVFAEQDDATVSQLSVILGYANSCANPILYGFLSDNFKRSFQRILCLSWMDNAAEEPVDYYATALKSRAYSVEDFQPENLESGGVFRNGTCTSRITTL
- protocolText: Displacement of 125I-[Leu8,D-Trp22,Tyr25]SRIF-28 from cloned receptor, membrane pellet autoradiography
- Assay type: binding
- measurementContext: inhibition of 125I-SRIF-28 radioligand binding, cloned human receptor
Numbered stars: 1 amine (or outer) side, 2 acyl side, 3 side chain; on linkers, the order of the positions; unused ones are H or OH. Bridge positions count the residues as written; N and C are the ends. Square brackets hold non-standard residues; d marks the D form. Peptide text beside a SMILES is read from it. X1 = C[C@H](c1ccc2ccccc2c1)[C@H](N[*:1])C(=O)[*:2]
measure: IC50

compound	endpointResult
C[C@@H](O)[C@@H]1NC(=O)[C@H](CCCCN)NC(=O)[C@H](Cc2c[nH]c3ccccc23)NC(=O)[C@H](Cc2ccc(CN)cc2)NC(=O)[C@H](Cc2ccccc2)NC(=O)[C@@H](NC(=O)[C@H](Cc2ccc(O)cc2)NC(N)=O)CSSC[C@@H](C(=O)O)NC(=O)[C@H](Cc2ccccc2)NC1=O [Peptide No. 15A]	> 1000 nM
C[C@H](c1ccc2ccccc2c1)[C@@H]1NC(=O)[C@H](Cc2ccc(O)cc2)NC(=O)[C@H](Cc2ccccc2)NC(=O)[C@H](N)CSSC[C@@H](C(=O)O)NC(=O)[C@H](Cc2ccccc2)NC(=O)[C@H]([C@@H](C)O)NC(=O)[C@H](CCCCN)NC1=O [Peptide No. 16A] (H-[dC]FY[X1]KTFC-OH; disulfide 1-8)	> 10000 nM
C[C@@H](O)[C@@H]1NC(=O)[C@H](CCCCN)NC(=O)[C@H](Cc2c[nH]c3ccccc23)NC(=O)[C@H](Cc2ccc(CN)cc2)NC(=O)[C@H](Cc2ccccc2)NC(=O)[C@@H](NC(=O)[C@@H](N)Cc2ccc(O)cc2)CSSC[C@@H](C(=O)O)NC(=O)[C@H](Cc2ccccc2)NC1=O [Peptide No. 15]	> 1000 nM
C[C@H](c1ccc2ccccc2c1)[C@@H]1NC(=O)[C@H](Cc2ccc(O)cc2)NC(=O)[C@H](Cc2ccccc2)NC(=O)[C@@H](N)CSSC[C@@H](C(=O)O)NC(=O)[C@H](Cc2ccccc2)NC(=O)[C@H]([C@@H](C)O)NC(=O)[C@H](CCCCN)NC1=O [Peptide No. 17A] (H-CFY[X1]KTFC-OH; disulfide 1-8)	> 1000 nM

---

Measured IC50 by item
- assayedTarget: hSSTR4 (Homo sapiens)
- Construct: expressed in transfected cells; host or cells: CHO-K1 cells and CCL39 cells
- Sequence (P31391 whole entry): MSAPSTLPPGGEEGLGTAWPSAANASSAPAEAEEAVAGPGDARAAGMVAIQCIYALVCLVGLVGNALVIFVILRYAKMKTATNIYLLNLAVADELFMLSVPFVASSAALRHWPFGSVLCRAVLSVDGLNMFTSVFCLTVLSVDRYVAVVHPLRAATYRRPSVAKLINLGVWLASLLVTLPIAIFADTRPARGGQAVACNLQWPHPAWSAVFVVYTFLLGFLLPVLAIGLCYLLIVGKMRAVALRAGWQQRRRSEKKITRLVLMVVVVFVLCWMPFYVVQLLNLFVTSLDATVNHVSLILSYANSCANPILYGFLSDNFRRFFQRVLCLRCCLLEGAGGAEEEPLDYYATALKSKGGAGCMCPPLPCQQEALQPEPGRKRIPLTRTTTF
- protocolText: Displacement of 125I-[Leu8,D-Trp22,Tyr25]SRIF-28 from cloned receptor, membrane pellet autoradiography
- Format: binding
- measurementContext: inhibition of 125I-SRIF-28 radioligand binding, cloned human receptor
Numbered stars: 1 amine (or outer) side, 2 acyl side, 3 side chain; on linkers, the order of the positions; unused ones are H or OH. Bridge positions count the residues as written; N and C are the ends. Square brackets hold non-standard residues; d marks the D form. Peptide text beside a SMILES is read from it. X1 = C[C@H](c1ccc2ccccc2c1)[C@H](N[*:1])C(=O)[*:2]; Phe(4-NH2) = Nc1ccc(C[C@H](N)C(=O)O)cc1; X2 = NC(=O)N[C@@H](CS[*:2])C(=O)[*:1]

molecule	endpointUnit	IC50
C[C@@H](O)[C@@H]1NC(=O)[C@H](CCCCN)NC(=O)[C@H](Cc2c[nH]c3ccccc23)NC(=O)[C@H](Cc2ccc(N)cc2)NC(=O)[C@H](Cc2ccccc2)NC(=O)[C@@H](N)CSSC[C@@H](C(=O)O)NC(=O)[C@H](Cc2ccc(O)cc2)NC1=O [Peptide No. 9]	nM	1.1
C[C@H](c1ccc2ccccc2c1)[C@@H]1NC(=O)[C@H](Cc2ccc(O)cc2)NC(=O)[C@H](Cc2ccccc2)NC(=O)[C@H](N)CSSC[C@@H](C(=O)O)NC(=O)[C@H](Cc2ccccc2)NC(=O)[C@H]([C@@H](C)O)NC(=O)[C@H](CCCCN)NC1=O [Peptide No. 16A] (H-[dC]FY[X1]KTFC-OH; disulfide 1-8)	nM	3.5
C[C@@H](O)[C@@H]1NC(=O)[C@H](CCCCN)NC(=O)[C@@H](Cc2c[nH]c3ccccc23)NC(=O)[C@H](Cc2ccc(N)cc2)NC(=O)[C@H](Cc2ccccc2)NC(=O)[C@@H](NC(N)=O)CSSC[C@@H](C(=O)O)NC(=O)[C@H](Cc2ccccc2)NC1=O [Peptide No. 4] (F[Phe(4-NH2)][dW]KTFC-OH; linker N-7 via X2)	nM	1.1
C[C@@H]1NC(=O)[C@H](Cc2ccccc2)NC(=O)[C@@H](NC(=O)[C@@H](N)Cc2ccc(O)cc2)CSSC[C@@H](C(=O)O)NC(=O)[C@H](Cc2ccccc2)NC(=O)[C@H]([C@@H](C)O)NC(=O)[C@H](CCCCN)NC(=O)[C@@H](Cc2c[nH]c3ccccc23)NC1=O [Peptide No. 14]	nM	1.1
C[C@@H]1NC(=O)[C@H](Cc2ccccc2)NC(=O)[C@@H](N)CSSC[C@@H](C(=O)O)NC(=O)[C@H](Cc2ccccc2)NC(=O)[C@H]([C@@H](C)O)NC(=O)[C@H](CCCCN)NC(=O)[C@@H](Cc2c[nH]c3ccccc23)NC1=O [Peptide No. 11] (H-CFA[dW]KTFC-OH; disulfide 1-8)	nM	0.98
C[C@@H](O)[C@@H]1NC(=O)[C@H](CCCCN)NC(=O)[C@@H](Cc2c[nH]c3ccccc23)NC(=O)[C@H](Cc2ccc(N)cc2)NC(=O)[C@H](Cc2ccccc2)NC(=O)[C@@H](NC(=O)[C@@H](N)Cc2ccc(O)cc2)CSSC[C@@H](C(=O)O)NC(=O)[C@H](Cc2ccccc2)NC1=O [Peptide No. 7]	nM	1.2
C[C@@H]1NC(=O)[C@H](Cc2ccccc2)NC(=O)[C@@H](N)CSSC[C@@H](C(=O)O)NC(=O)[C@H](C)NC(=O)[C@H]([C@@H](C)O)NC(=O)[C@H](CCCCN)NC(=O)[C@H](Cc2c[nH]c3ccccc23)NC1=O [Peptide No. 12A] (H-CFAWKTAC-OH; disulfide 1-8)	nM	3.5

This collection of values is drawn from patent US7238775B2.
